# Test system: SH-SY5Y cells
# methodDescription: viability of neuroblastoma cells (MTS assay)
# Assay type: cell-based, human
# conditionDescription: Homo sapiens, SH-SY5Y; 24 h incubation
# Description: The toxicity of AR71 in neuroblastoma cells was evaluated with the 3-(4,5-dimethylthiazol-2-yl)-5-(3-carboxymethoxyphenyl)-2-(4-sulfophenyl)-2H-tetrazolium (MTS) assay. […] Neurotoxicity evaluation was performed with the SH-SY5Y cell line. […] The absorbance was measured at 490 nm using the Tecan Spark multimode plate reader (Tecan, Männedorf, Switzerland). […] The viability of individual samples was calculated relative to the vehicle-treated cells (0.1% DMSO). […]
measuredProperty: IC50 (µM)
Give bare numbers, in µM.

Recorded IC50 for COc1cc(/C=C/C(=O)c2ccc(OCCCN3CCCCC3)cc2)cc(OC)c1OC , please?
24.9

###

# Tested on: human peripheral blood mononuclear cells (PBMCs)
# methodDescription: PBMC viability (resazurin reduction assay)
# Format: cell-based
# conditionDescription: Homo sapiens, PBMC; 48 h incubation; read-out: IC50 PBM Cells
measuredProperty: IC50 (µM)
Answers are plain numbers, in µM.

Recorded IC50 for COc1cc(/C=C/C(=O)c2ccc(OCCCN3CCCCC3)cc2)cc(OC)c1OC [AR71] , please?
7.48

###

# systemName: UniProtKB Q9Y5N1
# Sequence (Q9Y5N1 whole entry): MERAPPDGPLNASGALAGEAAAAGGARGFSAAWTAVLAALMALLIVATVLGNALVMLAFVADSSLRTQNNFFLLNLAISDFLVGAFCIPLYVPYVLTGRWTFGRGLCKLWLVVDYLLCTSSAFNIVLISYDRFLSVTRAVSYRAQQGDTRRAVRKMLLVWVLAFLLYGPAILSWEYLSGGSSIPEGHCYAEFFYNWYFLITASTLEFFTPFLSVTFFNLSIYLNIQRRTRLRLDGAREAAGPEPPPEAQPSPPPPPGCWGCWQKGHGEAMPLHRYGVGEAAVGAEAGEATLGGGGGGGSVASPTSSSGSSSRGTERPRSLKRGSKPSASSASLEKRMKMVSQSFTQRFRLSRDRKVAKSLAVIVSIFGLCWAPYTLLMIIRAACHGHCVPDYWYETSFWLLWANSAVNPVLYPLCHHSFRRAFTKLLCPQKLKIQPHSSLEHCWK
# methodDescription: cAMP accumulation assay in HEK 293 cells stably expressing the hH3R
# conditionDescription: reversal of inhibition of cAMP production by (R)-(-)-α-methyl histamine (30 nM) in forskolin-stimulated (10 μM) cells
# Description: The intrinsic activity of AR71 was evaluated in a 3′,5′-cyclic adenosine monophosphate (cAMP) accumulation assay in human embryonic kidney (HEK) 293 cells, stably expressing the hH3R [42]. The intrinsic activity of AR71 was evaluated in a 3′,5′-cyclic adenosine monophosphate (cAMP) accumulation assay in human embryonic kidney (HEK) 293 cells, stably expressing the hH3R [42], using the LANCE Ultra cAMP kit (Perkin Elmer, Waltham, MA, USA). […]
measuredProperty: pIC50
Numbers only, as −log10 of the molar value.

Recorded pIC50 for COc1cc(/C=C/C(=O)c2ccc(OCCCN3CCCCC3)cc2)cc(OC)c1OC , please?
7.08
